Biological target: Melatonin receptor type 1A (Homo sapiens, UniProt P48039)
Sequence (P48039 whole entry): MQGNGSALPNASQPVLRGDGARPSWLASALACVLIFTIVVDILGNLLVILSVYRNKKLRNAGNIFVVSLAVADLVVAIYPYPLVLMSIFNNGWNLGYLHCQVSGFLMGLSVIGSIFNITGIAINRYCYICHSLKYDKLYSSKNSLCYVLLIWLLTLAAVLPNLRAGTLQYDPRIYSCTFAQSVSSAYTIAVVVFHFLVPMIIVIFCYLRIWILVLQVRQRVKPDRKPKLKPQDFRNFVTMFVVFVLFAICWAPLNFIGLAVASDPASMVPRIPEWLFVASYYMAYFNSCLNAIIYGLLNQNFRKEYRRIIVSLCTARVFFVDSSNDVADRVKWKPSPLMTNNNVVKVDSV
Assay: Agonist activity at human MT1 receptor expressed in CHO cells by [35S]GTPgamma binding assay
Experimental endpoint: pEC50
Answers are plain numbers, as −log10 of the molar value.

1) CC(=O)NCCc1cccc2ccc(OCCCCOc3ccc4cccc(CC(=O)O)c4c3)cc12	8.50
2) C=CCC(=O)NCCc1cccc2ccc(OCCCCOc3ccc4cccc(CCNC(=O)CC=C)c4c3)cc12	7.79

// each molecule listed below needs its pEC50
1. CC(=O)NCCc1cccc2ccc(OCCCCOc3ccc4scc(CCNC(C)=O)c4c3)cc12
2. COC(=O)c1ccc(-c2ccc(OCCCCOc3ccc4cccc(CCNC(C)=O)c4c3)cc2)cc1
3. CC(=O)NCCc1cccc2ccc(OCCCCOc3ccc4[nH]cc(CCNC(C)=O)c4c3)cc12
4. CC(=O)NCCc1cccc2ccc(OCCCCOc3ccc4occ(CCNC(C)=O)c4c3)cc12

Given back:
1: 8.71; 2: 7.34; 3: 8.62; 4: 8.60
